The measured values listed here are drawn from PubChem BioAssay (NCI).

Tested on: MCF7 breast
Assay Summary: NCI-60 one-dose screen, 48 h
Recorded Conditions: 10 µM unless noted
Description: Growth inhibition of the MCF7 human tumor cell line is measured as a screen for anti-cancer activity. Cells are grown in 96 well plates and exposed to the test compound for 48 hours. Compounds are tested at a single concentration, which is 10^-5 M for most compounds. The reported endpoint is percent growth (GI% or GIPRCNT), where numbers from 0 - 100% represent growth inhibition, and numbers from -100% - 0 represent cell death. For example, a value of 40 represents 60% growth inhibition. […]
This is part of a sample that, as a whole, favours compounds with a hit. Of some 83,000 tested, about 20% had one in any assay. The source made the active and inactive calls. The calls were made as follows: active = growth percent below 10; inactive = the rest.
Classes used: active, inactive

| Compound | Test Target | Answer Label |
| --- | --- | --- |
| O=C1/C(=C/C=C/c2ccco2)SC(=S)N1C1CCCCC1 | MCF7 breast | inactive |
| COc1ccccc1NCc1cccn1Cc1ccc(F)cc1 | MCF7 breast | inactive |
| C=CCN(C)S(=O)(=O)/N=C1\NC(=O)NC1=C(Cl)Cl | MCF7 breast | inactive |
| Cc1occc1-c1nc2s/c(=C/c3ccc(-c4cc(C(F)(F)F)ccc4Cl)o3)c(=O)n2n1 | MCF7 breast | inactive |
| Cc1ccc(-n2cc(/C=C/C(=O)c3ccc(O)cc3)c(-c3ccc(S(C)(=O)=O)cc3)n2)cc1 | MCF7 breast | inactive |
| CC(=O)c1ccc(Nc2nc(SCC(C)C)nc(-c3ccccc3)c2C#N)cc1 | MCF7 breast | inactive |
| O=C(NNc1nc2cc(F)cc(F)c2n2cccc12)c1cnccn1 | MCF7 breast | active |
| CNC1CCc2c(sc(NC(=O)c3ccc(C(C)(C)C)cc3)c2C(N)=O)C1 (stereo not given) | MCF7 breast | active |
| C=C1CC[C@@H]2[C@](C)(CO)[C@H](O)CC[C@@]2(C)[C@@H]1C/C(O)=C1\CCOC1=O | MCF7 breast | inactive |
| CCOc1ccc(C(=O)Nc2ncc(Cc3ccc(F)cc3)s2)cc1 | MCF7 breast | inactive |

====

System: OVCAR-5 ovarian
Assay Summary: NCI-60 one-dose screen, 48 h (100 = growth as untreated, 0 = no growth, -100 = all killed)
Recorded Conditions: 10 µM unless noted
Experimental: Growth inhibition of the OVCAR-5 human tumor cell line is measured as a screen for anti-cancer activity. Cells are grown in 96 well plates and exposed to the test compound for 48 hours. Compounds are tested at a single concentration, which is 10^-5 M for most compounds. The reported endpoint is percent growth (GI% or GIPRCNT), where numbers from 0 - 100% represent growth inhibition, and numbers from -100% - 0 represent cell death. For example, a value of 40 represents 60% growth inhibition. […]
Compounds without any hit were thinned out: in the full panel of roughly 83,000, 20% have a hit. Calls of active or inactive are those of the source. Rule for the calls: active = growth percent below 10; inactive = the rest.

| Molecule | growth |
| --- | --- |
| CCN(CC)c1ccc2c(c1)Oc1nc(N)c(C#N)c(N)c1C2Sc1ccc(C)cc1 (stereo not given) | -88.6% (active) |
| CCOC(=O)C(=O)/C(=C\c1ccc(Cl)cc1)C(=O)N1C(=S)NC(=O)C1CC(C)C (stereo not given) | 98.6% (inactive) |
| Cc1ccc(NC(=S)NNC(=S)Nc2ccc(C)cc2)cc1 | 104% (inactive) |
| COc1cc(OC)cc(C(=O)Nc2sc3c(c2C(N)=O)CCC(=O)C3)c1 | 48.3% (inactive) |
| O=C(NNc1nc2cc(F)c(F)cc2n2c(CN3CC4CNCC4C3)ccc12)c1cnccn1 (stereo not given) | 42.7% (inactive) |
| O=S(=O)(NCCNc1nccc(-n2cnc3ccccc32)n1)c1ccc(C(F)(F)F)cc1 | 86.2% (inactive) |
| CN1CCN(c2ccc(/C=N/Nc3nc4ccccc4c(=O)n3-c3ccccc3)cc2)CC1 | 107% (inactive) |
| COc1ccc(NC(=O)CSc2nnc(-c3ccc4nc(-c5ccccc5)[nH]c4c3)o2)cc1 | 101% (inactive) |
| COc1ccc(OC)c(-c2nc(SCC(=O)c3ccc(Br)cc3)nc(Nc3ccc(S(N)(=O)=O)cc3)c2C#N)c1 | 73.3% (inactive) |
| COc1c(N2CC3CCCNC3C2)c(F)cc2c(=O)c(C(=O)N/N=C/c3ccc(F)cc3)cn(C3CC3)c12 (stereo not given) | 95.6% (inactive) |
| NC(N)=Nc1ccc(Oc2cccc(NC(N)=Nc3ccc(Cl)c(C(F)(F)F)c3)c2)cn1 | 41.8% (inactive) |
| Cn1ccnc1C(=O)/C=C/c1ccc(NC(=O)c2ccc(F)cc2)cc1 | 41.2% (inactive) |
| Cc1ccc2c(c1)C13C(=C2Br)CCCN1C(=O)c1ccccc13 (stereo not given) | 96.6% (inactive) |
| O=C(NNc1nc2cc(F)c(F)cc2n2cccc12)c1cnccn1 | 41.2% (inactive) |
| CN(C)CCNC(=O)c1ccc(-c2nc3ccc4[nH]ncc4c3c3c2COCC3)cc1 | 27.5% (inactive) |
| NS(=O)(=O)c1ccc(Nc2nc(N/N=C/c3ccc(Cl)cc3)nc(Nc3ccccc3)n2)cc1 | 83.4% (inactive) |
| CN1CCN(Cc2ccc(NC(=O)c3cncc(C#Cc4cnn5cccnc45)c3)cc2C(F)(F)F)CC1 | 26% (inactive) |
| CCNC(=O)Oc1ccc(/C(=C(/C)c2ccccc2)c2ccc(OCCN3CCCCCC3)cc2)cc1 | 35.1% (inactive) |
| COc1cc(/C=C2\C(=O)Nc3ccccc32)ccc1OCc1ccc(Cl)cc1 | 101% (inactive) |
| COc1ccc([C@H]2[C@H](O)C(=O)N2c2cc(OC)c(OC)c(OC)c2)cc1F | 27.7% (inactive) |
